Assay: Pharmacokinetics of vorolanib after single and multiple dosing
Type: in vivo, human
Details: human, plasma, oral; single dose 75 mg, n = 8; arithmetic mean (%CV); read-out: AUC0-24h
Measured Quantity: AUC(0-t) (ng·h/mL)
Output spec: scalar in ng·h/mL, unitless text.

Looking up Cc1[nH]c(/C=C2\C(=O)Nc3ccc(F)cc32)c(C)c1C(=O)N[C@H]1CCN(C(=O)N(C)C)C1 , I found its AUC(0-t) recorded as 1700

###

Assay: Pharmacokinetics of vorolanib after single and multiple dosing
Type: in vivo, human
Details: human, plasma, oral, 50 mg, multiple doses 50 mg daily, n = 8; median (range); read-out: Tmax,ss
Description: In the initial PK evaluation after a single dose, blood samples from participants in the 25 mg group were collected predose (−0.5 h) and at 0.5, 1, 2, 3, 4, 6, 8, 12, 16, 24, 36, and 48 h post-dose; blood samples from participants in the 50 mg and 75 mg groups were collected predose (−0.5 h) and at 0.5, 1, 2, 3, 4, 6, 8, 12, 16, 24, 36, 48, and 72 h post-dose. […]
Measured Quantity: Tmax (h)
Just the number in h, nothing appended.

Just so you know, measured Tmax for Cc1[nH]c(/C=C2\C(=O)Nc3ccc(F)cc32)c(C)c1C(=O)N[C@H]1CCN(C(=O)N(C)C)C1 came out at 5.03
